Biological target: T1, human GPVI-1B extracellular domain fused at its C-terminus to human IgG1 Fc (GPVI-Fc) (human)
T1 construct: Low frequency haplotype 'b'; also called hGPVI-lb; hGPVI-1b
T1 sequence (chain, as listed by the source limits assumed): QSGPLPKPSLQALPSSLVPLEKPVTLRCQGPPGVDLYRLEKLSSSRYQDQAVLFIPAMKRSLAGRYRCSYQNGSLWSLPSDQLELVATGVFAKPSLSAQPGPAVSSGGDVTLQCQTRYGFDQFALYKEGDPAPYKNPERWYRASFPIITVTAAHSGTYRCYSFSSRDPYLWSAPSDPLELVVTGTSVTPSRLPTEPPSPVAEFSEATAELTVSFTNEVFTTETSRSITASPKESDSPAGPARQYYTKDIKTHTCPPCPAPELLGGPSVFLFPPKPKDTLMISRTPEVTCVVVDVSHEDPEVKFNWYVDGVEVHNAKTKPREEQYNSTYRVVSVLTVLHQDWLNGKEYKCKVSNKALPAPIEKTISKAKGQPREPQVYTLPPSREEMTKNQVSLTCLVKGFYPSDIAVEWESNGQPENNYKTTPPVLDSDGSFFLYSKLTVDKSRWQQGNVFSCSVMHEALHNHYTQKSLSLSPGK
Experiment: ELISA, coated GPVI-Fc, Fab titrated
ENDPOINT_NAME: pEC50
Value format note: pEC50 is -log10 of concentration (mol/L); just state the number.

>  <BINDER>
Reference Control Antibody RefFab #1 (humanized GPVI antibody of WO2011073954A2, SANOFI) (Fab, V domains shown, Cloned into mammalian Fab expression vectors; a glycine-serine linker (G4S)2 was added to the C-terminus of the Fab heavy chain) VH: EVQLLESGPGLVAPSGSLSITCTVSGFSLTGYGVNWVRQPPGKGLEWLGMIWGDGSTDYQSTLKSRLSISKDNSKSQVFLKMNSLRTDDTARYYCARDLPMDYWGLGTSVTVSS VL: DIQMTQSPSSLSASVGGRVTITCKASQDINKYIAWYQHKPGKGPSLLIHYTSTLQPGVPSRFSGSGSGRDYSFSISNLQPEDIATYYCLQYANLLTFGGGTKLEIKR

>  <QUANTITATIVE_RESULT>
9.00

$$$$

I am curious: what pEC50 value has been reported for Fab #1 comprising a modified heavy chain constant region (Fab, V domains shown, Human Fab from the Ylanthia library; produced in HKB11 cells; also called Fab #1 mod; HC) VH: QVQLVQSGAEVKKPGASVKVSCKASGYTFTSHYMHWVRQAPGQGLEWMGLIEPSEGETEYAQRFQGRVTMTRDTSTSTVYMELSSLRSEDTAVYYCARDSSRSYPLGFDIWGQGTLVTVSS VL: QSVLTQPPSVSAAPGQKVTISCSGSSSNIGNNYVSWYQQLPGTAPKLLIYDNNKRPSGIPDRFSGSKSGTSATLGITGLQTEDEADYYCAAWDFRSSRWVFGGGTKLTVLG ?
9.18
